// values below are reported CLint
- Tested on: Liver microsomes
- assayProtocol: Intrinsic clearance in human liver microsomes assessed per gram of liver at 1 uM after 60 mins at pH 7.4 by LC-MS/MS analysis
- Assay type: ADME, Microsome
- recordedConditions: pH 7.4, 1 h
property: CLint

>>> observedvalue("CC[C@H]1OC(=O)[C@H](C)[C@@H](O[C@H]2C[C@@](C)(OC)[C@@H](O)[C@H](C)O2)[C@H](C)[C@@H](O[C@@H]2O[C@H](C)C[C@H](N(C)C)[C@H]2O)[C@](C)(O)C[C@@H](C)CN(CCCNCc2ccnc3ccccc23)[C@H](C)[C@@H](O)[C@]1(C)O")
"< 0.6 mL/min/g"
>>> observedvalue("CC[C@H]1OC(=O)[C@H](C)[C@@H](O[C@H]2C[C@@](C)(OC)[C@@H](O)[C@H](C)O2)[C@H](C)[C@@H](O[C@@H]2O[C@H](C)C[C@H](N(C)C)[C@H]2O)[C@](C)(O)C[C@@H](C)CN(CCCNC(=O)CCc2ccccc2)[C@H](C)[C@@H](O)[C@]1(C)O")
"< 0.6 mL/min/g"
>>> observedvalue("CC[C@H]1OC(=O)[C@H](C)[C@@H](O[C@H]2C[C@@](C)(OC)[C@@H](O)[C@H](C)O2)[C@H](C)[C@@H](O[C@@H]2O[C@H](C)C[C@H](N(C)C)[C@H]2O)[C@](C)(O)C[C@@H](C)CN(CCC(=O)N[C@H](C)c2cccc3ccccc23)[C@H](C)[C@@H](O)[C@]1(C)O")
"1.8 mL/min/g"
>>> observedvalue("CC[C@H]1OC(=O)[C@H](C)[C@@H](O[C@H]2C[C@@](C)(OC)[C@@H](O)[C@H](C)O2)[C@H](C)[C@@H](O[C@@H]2O[C@H](C)C[C@H](N(C)C)[C@H]2O)[C@](C)(O)C[C@@H](C)CN(CCCNc2ccnc3cc(Cl)ccc23)[C@H](C)[C@@H](O)[C@]1(C)O")
"< 0.6 mL/min/g"
>>> observedvalue("CC[C@H]1OC(=O)[C@H](C)[C@@H](O[C@H]2C[C@@](C)(OC)[C@@H](O)[C@H](C)O2)[C@H](C)[C@@H](O[C@@H]2O[C@H](C)C[C@H](N(C)C)[C@H]2O)[C@](C)(O)C[C@@H](C)CN(CCCNc2ccnc3ccccc23)[C@H](C)[C@@H](O)[C@]1(C)O")
"< 0.6 mL/min/g"
